Molecular target: Phosphatidylinositol 4-kinase alpha (Homo sapiens, UniProt P42356)
Sequence (P42356 whole entry): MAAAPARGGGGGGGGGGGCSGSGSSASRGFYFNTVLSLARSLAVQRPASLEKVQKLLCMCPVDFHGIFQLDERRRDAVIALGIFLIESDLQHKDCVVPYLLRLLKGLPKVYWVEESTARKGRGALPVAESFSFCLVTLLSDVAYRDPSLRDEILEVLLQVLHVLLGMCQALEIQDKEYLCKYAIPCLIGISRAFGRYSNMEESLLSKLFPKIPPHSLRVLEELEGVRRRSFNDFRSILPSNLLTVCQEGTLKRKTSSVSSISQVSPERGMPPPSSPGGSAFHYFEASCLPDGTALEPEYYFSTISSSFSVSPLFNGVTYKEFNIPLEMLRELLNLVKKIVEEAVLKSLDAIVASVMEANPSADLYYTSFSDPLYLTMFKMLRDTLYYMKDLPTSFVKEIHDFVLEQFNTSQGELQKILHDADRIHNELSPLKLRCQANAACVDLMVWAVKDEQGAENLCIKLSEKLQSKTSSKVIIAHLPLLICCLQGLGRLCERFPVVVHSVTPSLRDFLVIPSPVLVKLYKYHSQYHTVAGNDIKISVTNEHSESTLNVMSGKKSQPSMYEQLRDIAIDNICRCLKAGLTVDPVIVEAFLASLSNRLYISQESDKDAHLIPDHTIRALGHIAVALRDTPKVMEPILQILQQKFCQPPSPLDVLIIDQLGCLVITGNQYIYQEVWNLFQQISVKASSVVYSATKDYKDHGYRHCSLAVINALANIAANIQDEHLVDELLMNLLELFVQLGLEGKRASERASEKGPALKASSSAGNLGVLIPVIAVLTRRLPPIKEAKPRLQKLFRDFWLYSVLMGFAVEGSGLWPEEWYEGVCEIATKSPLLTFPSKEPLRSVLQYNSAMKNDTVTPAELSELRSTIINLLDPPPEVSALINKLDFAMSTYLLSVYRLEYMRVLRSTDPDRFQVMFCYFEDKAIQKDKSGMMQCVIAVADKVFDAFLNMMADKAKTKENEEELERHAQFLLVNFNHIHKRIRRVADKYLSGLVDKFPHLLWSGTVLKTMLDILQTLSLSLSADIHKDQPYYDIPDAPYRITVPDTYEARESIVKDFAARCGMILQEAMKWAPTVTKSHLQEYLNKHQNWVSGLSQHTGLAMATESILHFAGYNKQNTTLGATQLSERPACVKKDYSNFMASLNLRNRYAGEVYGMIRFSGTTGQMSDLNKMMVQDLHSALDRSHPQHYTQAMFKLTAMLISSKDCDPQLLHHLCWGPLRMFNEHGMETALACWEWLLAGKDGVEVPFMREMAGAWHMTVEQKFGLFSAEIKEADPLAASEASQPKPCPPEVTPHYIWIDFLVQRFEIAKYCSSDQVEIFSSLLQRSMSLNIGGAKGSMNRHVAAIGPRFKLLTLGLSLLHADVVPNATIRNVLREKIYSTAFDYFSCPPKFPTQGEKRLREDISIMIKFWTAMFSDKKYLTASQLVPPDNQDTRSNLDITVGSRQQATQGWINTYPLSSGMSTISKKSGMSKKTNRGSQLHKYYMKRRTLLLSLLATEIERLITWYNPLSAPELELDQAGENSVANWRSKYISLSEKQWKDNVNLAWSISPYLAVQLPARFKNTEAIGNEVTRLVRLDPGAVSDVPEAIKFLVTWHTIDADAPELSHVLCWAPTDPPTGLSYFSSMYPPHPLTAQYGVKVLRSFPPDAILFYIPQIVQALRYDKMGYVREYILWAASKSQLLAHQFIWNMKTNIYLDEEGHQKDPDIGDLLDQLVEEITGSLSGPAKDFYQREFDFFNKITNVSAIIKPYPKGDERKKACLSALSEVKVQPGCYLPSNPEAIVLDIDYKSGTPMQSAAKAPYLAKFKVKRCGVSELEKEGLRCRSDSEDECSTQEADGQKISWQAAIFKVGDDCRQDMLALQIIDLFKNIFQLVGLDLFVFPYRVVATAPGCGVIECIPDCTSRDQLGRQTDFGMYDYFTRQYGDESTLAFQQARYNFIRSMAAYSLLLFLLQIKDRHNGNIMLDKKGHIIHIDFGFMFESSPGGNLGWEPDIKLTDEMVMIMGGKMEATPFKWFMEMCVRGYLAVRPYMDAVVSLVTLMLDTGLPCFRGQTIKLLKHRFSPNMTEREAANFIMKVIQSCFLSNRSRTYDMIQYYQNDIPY
Assay: Inhibition of N-terminal FLAG-tagged human full length recombinant PI4K3alpha using D-myo-phosphatidylinositol substrate and ATP incubated for 45 mins by ADP-Glo kinase Assay
pIC50: −log10 of the molar value.
Quick list: pIC50 per entry.
quantity: pIC50

>  <compound>
Nc1nc2ccc(-c3ccc(CO)nc3)cc2s1

>  <systemName>
Phosphatidylinositol 4-kinase alpha (Homo sapiens, UniProt P42356)

>  <experimentalResult>
5.80

$$$$
>  <compound>
COCCOn1ccc(-c2ccc3nc(N)sc3c2)cc1=O

>  <systemName>
Phosphatidylinositol 4-kinase alpha (Homo sapiens, UniProt P42356)

>  <experimentalResult>
6.20

$$$$
>  <compound>
Nc1nc2ccc(-c3ccc(=O)[nH]c3)cc2s1

>  <systemName>
Phosphatidylinositol 4-kinase alpha (Homo sapiens, UniProt P42356)

>  <experimentalResult>
5.50

$$$$
>  <compound>
Cn1ccc(-c2ccc3nc(N)sc3c2)n1

>  <systemName>
Phosphatidylinositol 4-kinase alpha (Homo sapiens, UniProt P42356)

>  <experimentalResult>
5.60

$$$$
>  <compound>
Nc1nc2ccc(-c3ccn(CC4CC4)c(=O)c3)cc2s1

>  <systemName>
Phosphatidylinositol 4-kinase alpha (Homo sapiens, UniProt P42356)

>  <experimentalResult>
8.20

$$$$
>  <compound>
C[C@H](Nc1nc2ccc(-c3ccn(CC4CC4)c(=O)c3)cc2s1)C1CCOCC1

>  <systemName>
Phosphatidylinositol 4-kinase alpha (Homo sapiens, UniProt P42356)

>  <experimentalResult>
7.40

$$$$
>  <compound>
CN(C)C(=O)c1ccc(-c2ccc3nc(N)sc3c2)cn1

>  <systemName>
Phosphatidylinositol 4-kinase alpha (Homo sapiens, UniProt P42356)

>  <experimentalResult>
5.90

$$$$
>  <compound>
Nc1nc2ccc(-c3ccccc3)cc2s1

>  <systemName>
Phosphatidylinositol 4-kinase alpha (Homo sapiens, UniProt P42356)

>  <experimentalResult>
5.60

$$$$
>  <compound>
COCc1ccc(-c2ccc3nc(N)sc3c2)cn1

>  <systemName>
Phosphatidylinositol 4-kinase alpha (Homo sapiens, UniProt P42356)

>  <experimentalResult>
6.00

$$$$
>  <compound>
CCSc1ccc(-c2ccc3nc(N)sc3c2)cn1

>  <systemName>
Phosphatidylinositol 4-kinase alpha (Homo sapiens, UniProt P42356)

>  <experimentalResult>
7.00

$$$$
>  <compound>
O=c1cc(-c2ccc3nc(NC[C@H]4CC[C@H](C(=O)O)CC4)sc3c2)ccn1CC1CC1

>  <systemName>
Phosphatidylinositol 4-kinase alpha (Homo sapiens, UniProt P42356)

>  <experimentalResult>
9.00

$$$$
>  <compound>
O=c1cc(-c2ccc3nc(NCC4CCOCC4)sc3c2)ccn1CC1CC1

>  <systemName>
Phosphatidylinositol 4-kinase alpha (Homo sapiens, UniProt P42356)

>  <experimentalResult>
8.30

$$$$
>  <compound>
CCCn1cc(-c2ccc3nc(N)sc3c2)cn1

>  <systemName>
Phosphatidylinositol 4-kinase alpha (Homo sapiens, UniProt P42356)

>  <experimentalResult>
5.80

$$$$
>  <compound>
CCNc1ccc(-c2ccc3nc(N)sc3c2)cn1

>  <systemName>
Phosphatidylinositol 4-kinase alpha (Homo sapiens, UniProt P42356)

>  <experimentalResult>
6.20

$$$$
>  <compound>
C[C@@H](Nc1nc2ccc(-c3ccn(CC4CC4)c(=O)c3)cc2s1)C1CCOCC1

>  <systemName>
Phosphatidylinositol 4-kinase alpha (Homo sapiens, UniProt P42356)

>  <experimentalResult>
8.10

$$$$
>  <compound>
Cn1ccc(-c2ccc3nc(N)sc3c2)cc1=O

>  <systemName>
Phosphatidylinositol 4-kinase alpha (Homo sapiens, UniProt P42356)

>  <experimentalResult>
6.30

$$$$
>  <compound>
Nc1nc2ccc(-c3cccnc3)cc2s1

>  <systemName>
Phosphatidylinositol 4-kinase alpha (Homo sapiens, UniProt P42356)

>  <experimentalResult>
5.80

$$$$
>  <compound>
O=c1cc(-c2ccc3nc(NCC4CCS(=O)(=O)CC4)sc3c2)ccn1CC1CC1

>  <systemName>
Phosphatidylinositol 4-kinase alpha (Homo sapiens, UniProt P42356)

>  <experimentalResult>
8.70

$$$$
